System: BT-549 breast
experiment: NCI tumour cell line growth inhibition, 48 h
Classify on TGI using band A (below 9 µM), band B (9 µM to below 40 µM), band C (40 µM or more)

[
  {
    "molecule": "Clc1ccc(OCc2nnc3n2N=C(c2ccc(Cl)cc2Cl)CS3)cc1",
    "measurement_target": "BT-549 breast",
    "qualitative_label": "band C"
  },
  {
    "molecule": "c1ccc2c(c1)NC1(N3CCCCC3)CCCCC21 (stereo not given)",
    "measurement_target": "BT-549 breast",
    "qualitative_label": "band C"
  },
  {
    "molecule": "N#C[Se]CCCNS(=O)(=O)C1CC2C=CC1C2 (stereo not given)",
    "measurement_target": "BT-549 breast",
    "qualitative_label": "band A"
  },
  {
    "molecule": "C=C(CN1CC2C[C@](C(=O)OC)(c3cc4ccccc4[nH]3)C1C(OC)C2OC)S(=O)(=O)c1ccccc1 (stereo not given in full)",
    "measurement_target": "BT-549 breast",
    "qualitative_label": "band B"
  },
  {
    "molecule": "Cn1c(/C=C/[N+](=O)[O-])cc2ccccc21",
    "measurement_target": "BT-549 breast",
    "qualitative_label": "band A"
  },
  {
    "molecule": "Cc1nnc(N)nc1/C=C/c1c(O)ccc2ccccc12",
    "measurement_target": "BT-549 breast",
    "qualitative_label": "band C"
  },
  {
    "molecule": "Cc1ccc(Cl)c(Nc2ccccc2C(=O)O)c1Cl",
    "measurement_target": "BT-549 breast",
    "qualitative_label": "band C"
  },
  {
    "molecule": "NCOC(=O)Cc1ccc(Br)cc1",
    "measurement_target": "BT-549 breast",
    "qualitative_label": "band C"
  },
  {
    "molecule": "O=C1c2cccc(NCCN=Cc3ccccc3O)c2C(=O)c2c(NCCN=Cc3ccccc3O)cccc21",
    "measurement_target": "BT-549 breast",
    "qualitative_label": "band B"
  },
  {
    "molecule": "CCOC(=O)C(=O)/C(=C/N1C(=O)CC(=O)NC1=S)C(=O)OCC",
    "measurement_target": "BT-549 breast",
    "qualitative_label": "band C"
  },
  {
    "molecule": "CCOc1cc2oc(C)cc(=O)c2c(OC)c1C=Nc1ccc(Cn2c(C)nc3ccccc32)cc1",
    "measurement_target": "BT-549 breast",
    "qualitative_label": "band C"
  },
  {
    "molecule": "CC(=O)OC1CC2C3CCC4C[C@@H](NC(=O)C=C(C)C)CC[C@]4(C)C3CC[C@]2(C)[C@H]1C(C)N(C)C (stereo not given in full)",
    "measurement_target": "BT-549 breast",
    "qualitative_label": "band B"
  },
  {
    "molecule": "COc1cc(/C=C/C(=O)N2CCN(C(=O)c3cc(OC)c(OC)c(OC)c3)CC2)ccc1OCCCOc1cc2c(cc1OC)C(=O)N1CCC[C@H]1C=N2",
    "measurement_target": "BT-549 breast",
    "qualitative_label": "band A"
  },
  {
    "molecule": "CCOC(=O)C(NC(=O)c1ccccc1)(Nc1ccc(Cl)cc1C(F)(F)F)C(F)(F)F (stereo not given)",
    "measurement_target": "BT-549 breast",
    "qualitative_label": "band B"
  },
  {
    "molecule": "COC(=O)C1=C(OC(=O)/C=C/c2ccc(Cl)cc2)C(C(=O)OC)[C@@]2(O)[C@@H](C(=O)OC)[C@H](C)C[C@@H]1[C@@H]2C(=O)OC (stereo not given in full)",
    "measurement_target": "BT-549 breast",
    "qualitative_label": "band C"
  },
  {
    "molecule": "O=C(O)c1ccc(C(=O)O)c(C(=O)Nc2ccc3c(c2)C(=O)c2ccccc2-3)c1",
    "measurement_target": "BT-549 breast",
    "qualitative_label": "band C"
  },
  {
    "molecule": "Cc1cccc(-c2cc(=O)c3c(C)cc(C)nc3[nH]2)c1",
    "measurement_target": "BT-549 breast",
    "qualitative_label": "band B"
  }
]
